measurement_target: T1, human serum albumin (human, UniProt P02768 25-609)
T1 construct: also called HSA
T1 sequence (P02768 25-609 limits assumed): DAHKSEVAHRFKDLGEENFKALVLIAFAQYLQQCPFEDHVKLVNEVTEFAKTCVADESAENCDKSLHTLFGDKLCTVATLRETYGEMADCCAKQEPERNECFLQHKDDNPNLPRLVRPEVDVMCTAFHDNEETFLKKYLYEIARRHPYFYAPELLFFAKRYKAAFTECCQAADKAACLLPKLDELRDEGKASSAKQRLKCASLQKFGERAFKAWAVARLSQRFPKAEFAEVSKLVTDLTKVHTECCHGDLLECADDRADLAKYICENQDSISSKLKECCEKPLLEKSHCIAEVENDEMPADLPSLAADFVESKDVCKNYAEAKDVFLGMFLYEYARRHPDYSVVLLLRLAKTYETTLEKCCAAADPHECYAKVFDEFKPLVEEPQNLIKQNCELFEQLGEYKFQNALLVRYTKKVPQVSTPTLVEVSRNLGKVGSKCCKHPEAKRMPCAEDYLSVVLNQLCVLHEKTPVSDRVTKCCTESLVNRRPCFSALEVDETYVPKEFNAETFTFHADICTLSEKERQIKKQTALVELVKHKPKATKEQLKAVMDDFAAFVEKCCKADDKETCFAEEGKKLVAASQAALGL
assay_protocol: cradle library selection hit
measured_attribute: binding result

>>> reported_result("SEQ ID NO 166 (designed binder) PLSPPTNLHLEANPDTGVLTVSWERSTTPDITWYWIGTWYSGYMVGLEEVVHADQSSCTFDNLSPGLTYWVLVGTVVRSPSRRPISDTIIP")
"binds"
>>> reported_result("SEQ ID NO 260 (designed binder) NVSPPRRARVTDATETTITISWRTKTETITYFYVSAYPYYVAYDIQRTIKPDVRSYTITGLQPGTYYDINLSTLSYSDNSPVVIDAST")
"binds"
>>> reported_result("SEQ ID NO 251 (designed binder) NVSPPRRARVTDATETTITISWRTKTETITEFDVGADPGKGHAIQRTIKPDVRSYTITGLQPGTSYLIGLRTLNRVLHYPVVIDAST")
"binds"
